Origin of the recorded values: ChEMBL document CHEMBL4411335

Recorded pIC50, one value per entry.
- TARGET_DESC: Tyrosine-protein kinase ABL1 (Homo sapiens, UniProt P00519, D382N)
- Sequence (P00519 as listed by the source D382N): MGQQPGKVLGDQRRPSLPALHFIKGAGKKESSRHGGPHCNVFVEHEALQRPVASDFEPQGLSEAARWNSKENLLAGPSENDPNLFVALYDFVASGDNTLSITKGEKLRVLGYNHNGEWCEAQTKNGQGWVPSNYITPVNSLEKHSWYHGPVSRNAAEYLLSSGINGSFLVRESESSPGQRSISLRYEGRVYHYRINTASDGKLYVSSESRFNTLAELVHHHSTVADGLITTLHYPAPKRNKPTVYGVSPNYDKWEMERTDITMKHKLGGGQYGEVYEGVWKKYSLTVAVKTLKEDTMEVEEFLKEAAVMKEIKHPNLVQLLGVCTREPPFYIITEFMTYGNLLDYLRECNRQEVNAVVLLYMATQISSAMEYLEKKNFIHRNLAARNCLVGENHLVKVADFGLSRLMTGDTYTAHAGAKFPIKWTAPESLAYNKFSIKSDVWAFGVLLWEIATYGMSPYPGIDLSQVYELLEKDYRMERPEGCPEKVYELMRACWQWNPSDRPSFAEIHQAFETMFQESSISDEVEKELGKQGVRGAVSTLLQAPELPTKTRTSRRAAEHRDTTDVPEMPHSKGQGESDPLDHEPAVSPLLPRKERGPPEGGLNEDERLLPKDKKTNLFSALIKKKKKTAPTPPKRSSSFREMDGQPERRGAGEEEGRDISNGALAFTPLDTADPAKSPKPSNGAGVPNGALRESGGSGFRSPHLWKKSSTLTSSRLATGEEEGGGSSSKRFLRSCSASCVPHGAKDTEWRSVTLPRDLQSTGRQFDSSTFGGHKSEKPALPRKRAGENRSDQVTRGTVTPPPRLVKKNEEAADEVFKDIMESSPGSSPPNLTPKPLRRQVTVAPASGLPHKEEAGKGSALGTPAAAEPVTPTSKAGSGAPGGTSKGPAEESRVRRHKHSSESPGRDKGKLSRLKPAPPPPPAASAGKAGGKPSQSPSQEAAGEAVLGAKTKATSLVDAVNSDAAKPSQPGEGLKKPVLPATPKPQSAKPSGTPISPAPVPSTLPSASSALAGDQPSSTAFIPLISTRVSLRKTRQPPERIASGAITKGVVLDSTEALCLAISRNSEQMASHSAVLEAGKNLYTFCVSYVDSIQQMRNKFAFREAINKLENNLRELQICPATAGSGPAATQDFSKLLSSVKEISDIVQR
- PROTOCOL_DETAILS: Displacement of Myr-GQQPGKVLGDQRRPSL(K-TAMRA)G-amide from N-terminal-truncated human c-ABL D382N mutant (46 to 534 residues) after 30 mins by fluorescence polarization binding assay
API: returns pIC50 as number; meaning -log10 of concentration in mol/L.

SMI | TARGET_DESC | pIC50
NC1=NN(c2ccc(Cl)c(Cl)c2)CC1 | Tyrosine-protein kinase ABL1 (Homo sapiens, UniProt P00519, D382N) | 5.70
O=C(NC1=NN(c2ccc(Cl)c(Cl)c2)CC1)c1ccccn1 | Tyrosine-protein kinase ABL1 (Homo sapiens, UniProt P00519, D382N) | 5.70

Here is another compound to look at.
Which pIC50 value belongs to CC(=O)Nc1nc(-c2ccc(Cl)c(Cl)c2)cs1 ?
6.50
